- System: Colo205 cells
- measurement.protocol: In vitro proliferation inhibition test on Colo205 tumor cells (CellTiter-Glo)
- Type: cell-based
- measurement.parameters: Homo sapiens, COLO 205, 72 h; Colo205 cell proliferation, 3 days of culture, CTG
Catalogue of compounds with associated pIC50
By convention, pIC50 is the negative base-10 log of a molar concentration.

COc1cc(F)cc([C@@H](CO)NC(=O)[C@@H](C)N2CCc3sc(-c4nc(N[C@@H](C)CO)ncc4C)cc3C2=O)c1 [Example 17] ... 7.77

GET /values?item= COc1cc(F)cc([C@@H](CO)NC(=O)[C@@H](C)N2CCc3sc(-c4nc(Nc5ccnn5C)ncc4C)cc3C2=O)c1 [Example 10-P2] &system= Colo205 cells returns pIC50: 7.30

Response field pIC50 (Colo205 cells) for item Cc1cccc([C@@H](CO)NC(=O)[C@@H](C)N2CCc3sc(-c4nc(NC5CCOCC5)ncc4Cl)cc3C2=O)c1 [Example 3-P2] : 7.59

###

The molecules below have reported IC50 for ERK2 (Homo sapiens, UniProt P28482).
Number in nM, nothing else.

Cc1cccc([C@@H](CO)NC(=O)CN2CCc3sc(-c4nc(Nc5ccnn5C)ncc4C)cc3C2=O)c1 [Example 7] on ERK2 (Homo sapiens, UniProt P28482) gives IC50 = 3

# lookup: COc1cc(F)cc([C@@H](CO)NC(=O)[C@@H](C)N2CCc3sc(-c4nc(Nc5ccnn5C)ncc4C)cc3C2=O)c1 [Example 10-P2] on ERK2 (Homo sapiens, UniProt P28482), IC50 = 5

Record COc1cc(F)cc([C@@H](CO)NC(=O)[C@@H](C)N2CCc3sc(-c4nc(NC5CCOCC5)ncc4Cl)cc3C2=O)c1 [Example 9-P2] / ERK2 (Homo sapiens, UniProt P28482), IC50 recorded as 3

The molecule Cc1cccc([C@@H](CO)NC(=O)[C@H](C)N2CCc3sc(-c4nc(NC5CCOCC5)ncc4Cl)cc3C2=O)c1 [Example 3-P1] , tested on ERK2 (Homo sapiens, UniProt P28482), showed IC50 of 203

GET /values?item= COc1cc(F)cc([C@@H](CO)NC(=O)[C@H](C)N2CCc3sc(-c4nc(NC5CCOCC5)ncc4Cl)cc3C2=O)c1 [Example 9-P1] &system= ERK2 (Homo sapiens, UniProt P28482) returns IC50: 410

Result for COc1cc(F)cc([C@@H](CO)NC(=O)[C@@H](C)N2CCc3sc(-c4ccnc(NC5CCOCC5)n4)cc3C2=O)c1 [Example 11] , tested on ERK2 (Homo sapiens, UniProt P28482), IC50: 2

Field IC50 (system: ERK2 (Homo sapiens, UniProt P28482)) for entry Cc1cccc([C@@H](CO)NC(=O)[C@@H](C)N2CCc3sc(-c4nc(NC5CCOCC5)ncc4Cl)cc3C2=O)c1 [Example 3-P2] = 4
